Molecular target: Epidermal growth factor receptor (Homo sapiens, UniProt P00533)
Assay: DRUGMATRIX: Protein Tyrosine Kinase, EGF Receptor enzyme inhibition (substrate: Poly(Glu:Tyr))
Format: cell-based, Insect cells
Conditions: insect cells; Not Active = under 50% inhibition at 10 µM; read-out: IC50
OBSERVATION TYPE: IC50 (nM)
Kindly answer with a numeric value in nM, unit omitted.

stdin: Param readout= IC50; system= Epidermal growth factor receptor (Homo sapiens, UniProt P00533); entry= CISPLATIN ; returns value.
stdout: 2620

----------
Target: Alpha-1B adrenergic receptor (Rattus norvegicus, UniProt P15823)
Sequence (P15823 whole entry): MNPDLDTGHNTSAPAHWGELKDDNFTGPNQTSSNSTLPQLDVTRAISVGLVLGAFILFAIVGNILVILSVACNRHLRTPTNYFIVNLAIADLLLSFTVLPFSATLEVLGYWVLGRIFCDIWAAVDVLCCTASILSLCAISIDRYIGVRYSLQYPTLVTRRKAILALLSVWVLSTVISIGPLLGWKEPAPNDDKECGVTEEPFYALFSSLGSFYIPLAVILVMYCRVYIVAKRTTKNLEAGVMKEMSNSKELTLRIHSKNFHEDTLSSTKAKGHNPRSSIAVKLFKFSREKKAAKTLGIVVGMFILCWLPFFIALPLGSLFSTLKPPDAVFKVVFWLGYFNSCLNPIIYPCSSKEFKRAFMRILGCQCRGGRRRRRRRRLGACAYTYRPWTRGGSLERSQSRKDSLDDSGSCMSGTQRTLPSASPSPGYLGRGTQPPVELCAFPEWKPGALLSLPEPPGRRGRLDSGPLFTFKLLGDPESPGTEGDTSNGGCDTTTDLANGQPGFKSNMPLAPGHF
Assay: DRUGMATRIX: Alpha-1B adrenergic receptor radioligand binding (ligand: prazosin)
Format: cell membranes, Wistar, Liver, Membrane
Conditions: Not Active = under 50% inhibition at 10 µM
OBSERVATION TYPE: Ki

Please review the following examples before continuing.
[
  {
    "SUBSTANCE": "CISPLATIN",
    "RESULT": "Not Active"
  },
  {
    "SUBSTANCE": "GOLD SODIUM THIOMALATE",
    "RESULT": "Not Active"
  },
  {
    "SUBSTANCE": "CARBOPLATIN",
    "RESULT": "Not Active"
  },
  {
    "SUBSTANCE": "IVERMECTIN",
    "RESULT": "Not Active"
  }
]

Kindly consider the entry below.
stdin: For OXALIPLATIN , what is its reported Ki?
stdout: Not Active
